Cited source: patent US20140187625A1

- test-target: activity with respect to vitamin K (vitamin K epoxide substrate), microsomal liver fractions from sensitive rats (Rattus norvegicus, UniProt Q6TEK4)
- Construct: with 0.5 to 1 mg of microsomal liver fractions from sensitive rats; from tissue; host or cells: rat liver microsomes (sensitive rats)
- Sequence (Q6TEK4 whole entry): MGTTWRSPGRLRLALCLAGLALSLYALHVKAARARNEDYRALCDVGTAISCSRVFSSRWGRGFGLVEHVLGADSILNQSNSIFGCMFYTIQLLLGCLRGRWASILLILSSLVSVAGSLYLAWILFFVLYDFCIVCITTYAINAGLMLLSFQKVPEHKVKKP
- test-details: Inhibition of vitamin K epoxide reduction (activity with respect to vitamin K) in rat liver microsomes, IC50
- Type: biochemical
pIC50: −log10 of the molar value.
measured-endpoint: pIC50

INSERT INTO measurements (compound, result_comparator, reported_value) VALUES
  ('CCCCCCCCCCCCCCc1c(O)c2ccccc2oc1=O', '=', 7.40),
  ('CCCCCCCCCCc1c(O)c2ccccc2oc1=O', '=', 7.22),
  ('CCCCCCc1c(O)c2ccccc2oc1=O [VIII, reference compound]', '<', 6.70),
  ('CCCCCCCCc1c(O)c2ccccc2oc1=O', '=', 6.82),
  ('CCCCCCCCCCCCCCCCc1c(O)c2ccccc2oc1=O', '=', 7.40),
  ('CCCCCCCCCCCCCCCCCCc1c(O)c2ccccc2oc1=O', '=', 7.22),
  ('CCCCCCCCCCCCc1c(O)c2ccccc2oc1=O', '=', 7.30);
